experiment.notes: lipophilicity log D at pH 7.4
Format: physicochemical
condition.parameters: octanol/water
parameter.measured: chromatographic logD

COC(=O)c1c[nH]c2cc(N3CCN(c4ccc(OC)cc4)CC3)c(OC)cc2c1=O : 2.48
O=c1c(Br)c[nH]c2cc(CN3CCN(c4ccc(F)cc4)CC3)ccc12 : 2.91
COC(=O)c1c[nH]c2cc(N3CCN(Cc4ccc(OC)cc4)CC3)ccc2c1=O : 2.08
COC(=O)c1c[nH]c2cc(N3CCN(c4ccc(OC)cc4)CC3)ccc2c1=O : 2.44
COC(=O)c1c[nH]c2ccc(CN3CCN(c4ccccc4)CC3)cc2c1=O : 2.03
COC(=O)c1c[nH]c2cc(CN3CCN(c4ccc(OC)cc4)CC3)c(OC)cc2c1=O : 2.19
COC(=O)c1c[nH]c2cc(CN3CCN(c4ccc(OC)cc4)CC3)ccc2c1=O : 2.11
COC(=O)c1c[nH]c2cc(CN3CCN(Cc4ccccc4)CC3)c(C)cc2c1=O : 1.94
